Test: CBD water solubility / solubility enhancement by UV-Visible spectrometry
Format: physicochemical
Details: water, thermodynamic from solid; low power sonication; read-out: Water Solubility of CBD
parameter_measured: solubility (µg/mL)

C=C(C)[C@@H]1CCC(C)=C[C@H]1c1c(O)cc(CCCCC)cc1O
0.4

###

Assay: CBD water solubility / solubility enhancement by UV-Visible spectrometry
Assay type: physicochemical
Details: water, thermodynamic from solid; high power sonication; read-out: Water Solubility of CBD
Protocol: The General Method used to determine the solubility of CBD is as follows: Water (1 mL) was added to one of the vials. […] CBD solubility was determined by UV-Visible spectrometry. Three methods were used for background subtraction: • 1. For agents with very little color, the CBD is seen as a peak on the side of a peak that can be readily measured by drawing a tangent line on the interfering peak to estimate a baseline. […]
parameter_measured: solubility (µg/mL)

C=C(C)[C@@H]1CCC(C)=C[C@H]1c1c(O)cc(CCCCC)cc1O
31

###

Assay: CBD water solubility / solubility enhancement by UV-Visible spectrometry
Type: physicochemical
Conditions: water with the Excipients of the invention, aqueous with cosolvent or surfactant or cyclodextrin, thermodynamic from solid; read-out: water solubility of CBD, enhanced
parameter_measured: solubility

C=C(C)[C@@H]1CCC(C)=C[C@H]1c1c(O)cc(CCCCC)cc1O [CBD, cannabidiol]
500 to 15100 µg/mL
